Target: EGFR L858R/C797S (Homo sapiens, UniProt P00533, C797S/L858R)
Sequence (P00533 25-1210 C797S/L858R): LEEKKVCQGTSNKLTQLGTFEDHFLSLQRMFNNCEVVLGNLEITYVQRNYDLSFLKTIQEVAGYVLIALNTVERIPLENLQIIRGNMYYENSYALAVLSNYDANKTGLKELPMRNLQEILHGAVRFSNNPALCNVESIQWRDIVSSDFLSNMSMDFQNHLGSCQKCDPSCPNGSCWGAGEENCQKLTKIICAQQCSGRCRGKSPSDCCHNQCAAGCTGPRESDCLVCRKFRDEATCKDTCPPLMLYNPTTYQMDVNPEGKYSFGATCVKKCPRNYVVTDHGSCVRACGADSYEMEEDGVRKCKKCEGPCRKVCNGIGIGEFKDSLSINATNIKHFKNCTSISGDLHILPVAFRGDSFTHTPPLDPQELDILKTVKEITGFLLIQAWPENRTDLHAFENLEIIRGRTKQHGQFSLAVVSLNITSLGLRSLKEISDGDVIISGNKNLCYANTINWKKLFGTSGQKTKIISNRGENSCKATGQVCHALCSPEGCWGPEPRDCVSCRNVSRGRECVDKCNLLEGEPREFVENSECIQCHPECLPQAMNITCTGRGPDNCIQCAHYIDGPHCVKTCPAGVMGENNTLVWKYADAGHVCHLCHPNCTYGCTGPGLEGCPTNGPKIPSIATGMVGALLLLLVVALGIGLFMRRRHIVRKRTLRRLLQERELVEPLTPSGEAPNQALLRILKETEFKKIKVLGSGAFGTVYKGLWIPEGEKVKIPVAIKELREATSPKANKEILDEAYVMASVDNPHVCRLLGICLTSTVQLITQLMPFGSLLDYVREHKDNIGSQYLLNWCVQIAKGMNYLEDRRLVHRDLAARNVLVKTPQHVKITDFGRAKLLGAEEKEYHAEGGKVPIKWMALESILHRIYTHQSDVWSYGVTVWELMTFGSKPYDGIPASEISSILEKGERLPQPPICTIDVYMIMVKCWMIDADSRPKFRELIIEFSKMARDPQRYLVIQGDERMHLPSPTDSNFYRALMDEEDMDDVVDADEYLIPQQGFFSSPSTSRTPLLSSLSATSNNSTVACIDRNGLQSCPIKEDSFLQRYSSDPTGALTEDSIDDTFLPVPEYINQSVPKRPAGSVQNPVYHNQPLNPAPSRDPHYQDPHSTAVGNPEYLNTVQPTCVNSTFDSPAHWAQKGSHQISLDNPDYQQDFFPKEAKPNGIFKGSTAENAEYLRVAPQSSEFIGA
Assay: Biochemical EGFR kinase assay (Lance Ultra TR-FRET), double mutant L858R/C797S
Settings: Km ATP; read-out: IC50 L858R/C797S (nM) Km ATP
Recorded IC50, one value per entry.
Respond with the bare value in nM.

Some compounds with known IC50 results, for comparison:
CC(C)Nc1cc(Nc2ccnc(-c3cnn(S(=O)(=O)C4CC4)c3)n2)ncc1-c1ccn(CCC(F)(F)F)n1; 0.8
C[C@]1(O)CC[C@@H](Nc2cc(Nc3ccnc(-c4cnn(S(=O)(=O)C5CC5)c4)n3)ncc2-c2ccn(C3COC3)n2)CC1; 0.1
CO[C@H]1CCN(c2nccc(Nc3cc(N[C@H]4CC[C@@](C)(O)CC4)c(-c4ccn(C(F)F)n4)cn3)n2)C[C@H]1F; 19.7
Cn1nc(-c2cnc(Nc3ccnc(-c4cnn(CC(F)(F)F)c4)n3)cc2N[C@H]2CC[C@@](C)(O)CC2)cc1C(F)(F)F; 75
CN1CCC(n2ccc(-c3cnc(Nc4ccnc(-c5cnn(S(=O)(=O)C6CC6)c5)n4)cc3N[C@H]3CC[C@@](C)(O)CC3)n2)CC1; 0.1
CN(C)C[C@]1(O)CC[C@@H](Nc2cc(Nc3ccnc(-c4cnn(S(=O)(=O)C5CC5)c4)n3)ncc2-c2ccn(C)n2)CC1; 3.3
CCS(=O)(=O)n1cc(-c2nccc(Nc3cc(N[C@H]4CC[C@@](C)(O)CC4)c(-c4ccn(C(F)F)n4)cn3)n2)cn1; 0.4
O=S(=O)(C1CC1)n1cc(-c2nccc(Nc3cc(N[C@H]4CC[C@@H](F)CC4)c(-c4ccn(C(F)F)n4)cn3)n2)cn1; 4.7
Cn1ccc(-c2cnc(Nc3ccnc(-c4cnn(S(=O)(=O)C5CC5)c4)n3)cc2NCC2CCC(C(F)F)CC2)n1 (centres unmarked); 16.1
O=S(=O)(C1CC1)n1cc(-c2nccc(Nc3cc(N[C@H]4CC[C@@H](CO)CC4)c(-c4ccn(CC(F)F)n4)cn3)n2)cn1; 0.5

Name the recorded IC50 of the compound listed here: `C[C@]1(O)CC[C@@H](Nc2cc(Nc3ccnc(-c4cnn(S(=O)(=O)C5CC5)c4)n3)ncc2-c2csc(N3CCOCC3)n2)CC1` 3

State its IC50 for this compound: `Cn1nc(-c2cnc(Nc3ccnc(-c4cnn(S(=O)(=O)C5CC5)c4)n3)cc2N[C@H]2CC[C@@H](NCCF)CC2)cc1C(F)(F)F` 5.3

Supply reported IC50 belonging to this compound: `O=S(=O)(C1CC1)n1cc(-c2nccc(Nc3cc(N[C@H]4CC[C@@H](CCO)CC4)c(-c4ccn(CC(F)(F)F)n4)cn3)n2)cn1` 1.4

* * *

Target: EGFR wildtype (WT) (Homo sapiens, UniProt P00533)
Sequence (P00533 25-1210): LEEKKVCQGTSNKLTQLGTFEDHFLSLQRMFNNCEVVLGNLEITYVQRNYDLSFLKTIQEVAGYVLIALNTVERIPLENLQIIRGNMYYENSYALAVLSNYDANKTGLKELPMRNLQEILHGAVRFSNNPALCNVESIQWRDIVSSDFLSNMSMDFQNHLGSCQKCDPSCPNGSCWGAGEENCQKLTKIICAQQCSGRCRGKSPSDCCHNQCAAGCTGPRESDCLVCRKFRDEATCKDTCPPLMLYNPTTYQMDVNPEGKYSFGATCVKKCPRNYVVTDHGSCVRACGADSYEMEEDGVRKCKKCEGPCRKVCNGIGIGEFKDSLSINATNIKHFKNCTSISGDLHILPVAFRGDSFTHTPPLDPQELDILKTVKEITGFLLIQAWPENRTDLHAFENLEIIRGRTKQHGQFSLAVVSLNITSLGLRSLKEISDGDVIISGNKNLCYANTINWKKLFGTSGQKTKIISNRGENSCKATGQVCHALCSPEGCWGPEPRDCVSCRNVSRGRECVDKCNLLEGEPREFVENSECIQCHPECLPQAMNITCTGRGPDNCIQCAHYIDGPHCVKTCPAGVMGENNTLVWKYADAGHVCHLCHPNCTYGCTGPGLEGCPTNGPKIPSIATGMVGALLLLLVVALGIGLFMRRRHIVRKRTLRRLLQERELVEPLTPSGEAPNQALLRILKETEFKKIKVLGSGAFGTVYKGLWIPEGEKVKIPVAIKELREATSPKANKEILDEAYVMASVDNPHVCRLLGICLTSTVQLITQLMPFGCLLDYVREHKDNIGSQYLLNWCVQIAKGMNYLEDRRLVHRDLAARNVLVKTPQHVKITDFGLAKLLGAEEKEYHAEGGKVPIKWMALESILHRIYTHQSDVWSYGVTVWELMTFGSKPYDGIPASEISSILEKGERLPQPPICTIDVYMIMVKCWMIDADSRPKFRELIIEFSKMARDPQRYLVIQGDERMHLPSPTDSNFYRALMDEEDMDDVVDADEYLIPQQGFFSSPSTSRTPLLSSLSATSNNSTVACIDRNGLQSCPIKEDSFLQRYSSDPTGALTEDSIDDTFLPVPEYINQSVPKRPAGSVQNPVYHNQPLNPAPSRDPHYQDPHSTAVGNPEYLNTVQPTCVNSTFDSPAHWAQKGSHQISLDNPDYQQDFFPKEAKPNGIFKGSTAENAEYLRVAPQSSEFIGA
Assay: Biochemical EGFR kinase assay (Lance Ultra TR-FRET), wildtype
Conditions: Km ATP; read-out: IC50 WT, Km ATP
Param label: returns Criterion met when IC50 < 60 nM, returns Criterion not met otherwise, including exact equality.

Cc1nn(CC(F)(F)F)cc1-c1nccc(Nc2cc(N[C@H]3CC[C@@H](CCO)CC3)c(-c3cc(C(F)(F)F)n(C)n3)cn2)n1; Criterion met
O=S(=O)(C1CC1)n1cc(-c2cc(Nc3ncc(-c4ccn(C(F)F)n4)c(N[C@H]4CC[C@@H](CO)CC4)n3)ccn2)cn1; Criterion met
OCC[C@H]1CC[C@@H](Nc2cc(Nc3ccnc(-c4cnn(CC(F)F)c4)n3)ncc2-c2ccn(CC(F)(F)F)n2)CC1; Criterion met
Cc1nn(CC(F)(F)F)cc1-c1cc(Nc2ncc(-c3ccn(CC(F)(F)F)n3)c(N[C@H]3CC[C@@](C)(O)CC3)n2)ccn1; Criterion not met
C[C@]1(CO)C[C@@H](Nc2cc(Nc3ccnc(-c4cnn(S(=O)(=O)C5CC5)c4)n3)ncc2-c2ccn(C(F)F)n2)C1; Criterion not met

// next entry
Quick check: IC50 of `O=S(=O)(C1CC1)n1cc(-c2cc(Nc3ncc(-c4ccn(CC(F)(F)F)n4)c(N[C@H]4CC[C@@H](F)CC4)n3)ccn2)cn1` under 60 nM? Criterion not met

* * *

Here the recorded IC50 is given for each entry.
Target: EGFR L858R/T790M/C797S (Homo sapiens, UniProt P00533, C797S/L858R/T790M)
Sequence (P00533 25-1210 T790M/C797S/L858R): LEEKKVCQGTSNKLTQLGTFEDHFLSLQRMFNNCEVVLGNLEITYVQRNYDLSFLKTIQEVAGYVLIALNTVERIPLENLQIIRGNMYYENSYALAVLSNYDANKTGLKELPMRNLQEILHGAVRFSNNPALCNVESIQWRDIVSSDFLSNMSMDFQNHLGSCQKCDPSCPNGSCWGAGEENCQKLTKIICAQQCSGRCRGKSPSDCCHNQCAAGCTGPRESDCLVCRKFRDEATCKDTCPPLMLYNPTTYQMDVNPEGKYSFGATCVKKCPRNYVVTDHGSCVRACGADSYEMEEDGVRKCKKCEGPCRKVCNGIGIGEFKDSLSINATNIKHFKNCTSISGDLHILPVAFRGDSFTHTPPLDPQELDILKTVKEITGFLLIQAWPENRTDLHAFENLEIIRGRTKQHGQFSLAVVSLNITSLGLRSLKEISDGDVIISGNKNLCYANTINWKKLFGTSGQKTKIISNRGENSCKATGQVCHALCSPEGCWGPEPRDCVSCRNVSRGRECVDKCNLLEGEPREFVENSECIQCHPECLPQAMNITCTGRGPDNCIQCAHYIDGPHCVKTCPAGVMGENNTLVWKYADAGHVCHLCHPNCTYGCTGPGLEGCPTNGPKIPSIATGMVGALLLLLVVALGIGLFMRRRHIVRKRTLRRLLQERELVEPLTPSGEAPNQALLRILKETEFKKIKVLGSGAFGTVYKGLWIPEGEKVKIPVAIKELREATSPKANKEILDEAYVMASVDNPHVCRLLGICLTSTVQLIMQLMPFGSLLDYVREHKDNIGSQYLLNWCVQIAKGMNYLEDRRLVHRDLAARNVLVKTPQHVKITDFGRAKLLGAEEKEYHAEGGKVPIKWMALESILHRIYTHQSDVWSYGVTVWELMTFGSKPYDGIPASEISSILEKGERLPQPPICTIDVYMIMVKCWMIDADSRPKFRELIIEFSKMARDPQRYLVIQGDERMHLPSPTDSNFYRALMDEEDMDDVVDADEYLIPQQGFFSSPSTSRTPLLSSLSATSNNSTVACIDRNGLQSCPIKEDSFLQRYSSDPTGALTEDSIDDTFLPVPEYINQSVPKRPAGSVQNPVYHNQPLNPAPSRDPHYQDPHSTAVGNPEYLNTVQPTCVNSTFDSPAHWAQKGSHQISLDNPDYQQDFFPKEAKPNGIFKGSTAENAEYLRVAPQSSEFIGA
Assay: Biochemical EGFR kinase assay (Lance Ultra TR-FRET), triple mutant L858R/T790M/C797S
Conditions: IC50 L858R/T790M/C797S (nM) 100 μM ATP, 100 μM ATP
Just the number please, in nM, no unit attached.

Look over these answered cases.
CNC(=O)[C@H]1CC[C@@H](Nc2cc(Nc3ccnc(-c4cnn(S(=O)(=O)C5CC5)c4)n3)ncc2-c2ccn(C(F)F)n2)CC1 [Example 24]; 0.3
Cn1ccc(-c2cnc(Nc3ccnc(-c4cnn(S(=O)(=O)C5CC5)c4)n3)cc2NCC2CCC(NCCF)CC2)n1 (stereo not shown) [Example 131]; 0.3
Cc1cc(-c2cnc(Nc3ccnc(-c4cnn(S(=O)(=O)C5CC5)c4)n3)cc2N[C@H]2CC[C@@](C)(O)CC2)nn1C [Example 291]; 0.3
C[C@]1(O)CC[C@@H](Nc2cc(Nc3ccnc(-c4cnn(S(=O)(=O)C5CC5)c4)n3)ncc2-c2ccn(CC(F)F)n2)CC1 [Example 241]; 0.7
Cc1nn(S(=O)(=O)N(C)C)cc1-c1nccc(Nc2cc(N[C@H]3CC[C@@](C)(O)CC3)c(-c3ccn(C(F)F)n3)cn2)n1 [Example 315]; 1.1
O=S(=O)(C1CC1)n1cc(-c2nccc(Nc3cc(N[C@H]4CC[C@@H](CN5CCC5)CC4)c(-c4ccn(CC(F)(F)F)n4)cn3)n2)cn1 [Example 272]; 0.2
CC1(O)CCC(Oc2cc(Nc3ccnc(-c4cnn(S(=O)(=O)C5CC5)c4)n3)ncc2-c2cnn(C(F)F)c2)CC1 (stereo not shown) [Example 73]; 1.1
CN(C)CCCn1ccc(-c2cnc(Nc3ccnc(-c4cnn(S(=O)(=O)C5CC5)c4)n3)cc2N[C@H]2CC[C@@H](C(C)(C)O)CC2)n1 [Example 278]; 0.3

Entry O=S(=O)(C1CC1)n1cc(-c2nccc(Nc3cc(N[C@H]4CC[C@@H](NCCF)CC4)c(-c4csc(N5CCOCC5)n4)cn3)n2)cn1 [Example 126] needs its IC50 filled in; supply it. 1.3

Answer with the recorded IC50 of O=S(=O)(C1CC1)n1cc(-c2nccc(Nc3cc(N[C@H]4CC[C@@H](O)CC4)c(-c4csc(C(F)(F)F)n4)cn3)n2)cn1 [Example 81] only. 1.2

# return recorded IC50 for entry CCS(=O)(=O)n1ccc(-c2nccc(Nc3cc(N[C@H]4CC[C@@](C)(O)CC4)c(-c4ccn(C(F)F)n4)cn3)n2)n1 [Example 309] 29.9

Could you please provide reported IC50 for Cn1ccc(-c2cnc(Nc3ccnc(-c4cnn(S(=O)(=O)C5CC5)c4)n3)cc2N[C@H]2CC[C@H](CO)CC2)n1 [Example 229] ? Thanks! 1.4

Please supply the value of reported IC50 for the item C[C@]1(O)CC[C@@H](Nc2cc(Nc3ccnc(-c4cnn(CC(F)(F)F)c4)n3)ncc2-c2ccn(C(F)F)n2)CC1 [Example 137] 0.9

// Input: CC1CC(Nc2cc(Nc3ccnc(-c4cnn(S(=O)(=O)C5CC5)c4)n3)ncc2-c2ccn(C(F)F)n2)CCC1O (stereo not shown) [Example 105] . Output its IC50 only. 4.8

Report IC50, nothing else, for this compound: O=S(=O)(C1CC1)n1cc(-c2nccc(Nc3cc(N[C@@H]4CC[C@@H](O)C4)c(-c4ccn(C(F)F)n4)cn3)n2)cn1 [Example 12] 2.8

Please report the measured IC50 for O=S(=O)(C1CC1)n1cc(-c2nccc(Nc3cc(N[C@H]4CC[C@@H](NCC(F)F)CC4)c(-c4cc5n(n4)CCCC5)cn3)n2)cn1 [Example 63] 3.3

State its IC50 for this compound: O=S(=O)(C1CC1)n1cc(-c2nccc(Nc3cc(NCC4CCC(NCCF)CC4)c(-c4ccn(C(F)F)n4)cn3)n2)cn1 (stereo not shown) [Example 132] 0.5

Quote IC50 reported for CN[C@H]1CC[C@@H](Nc2cc(Nc3ccnc(-c4cnn(S(=O)(=O)C5CC5)c4)n3)ncc2-c2csc(C(C)(C)O)n2)CC1 [Example 56] please. 0.8

Specify measured IC50 for O=S(=O)(C1CC1)n1cc(-c2nccc(Nc3cc(N[C@H]4CC[C@@H](CO)CC4)c(-c4ccn(C(F)F)n4)cn3)n2)cn1 [Example 18] . 0.6

Specify IC50 for O=S(=O)(C1CC1)n1cc(-c2nccc(Nc3cc(NC[C@H]4CC[C@H](CO)CC4)c(-c4ccn(C(F)F)n4)cn3)n2)cn1 [Example 22] and stop. 1.2

Supply reported IC50 belonging to this compound: CN(C)CC1(C)CCC(Nc2cc(Nc3ccnc(-c4cnn(S(=O)(=O)C5CC5)c4)n3)ncc2-c2ccn(CC(F)(F)F)n2)CC1 (stereo not shown) [Example 267] 0.1

Output measured IC50 for this item: CN(C)C(=O)n1cc(-c2nccc(Nc3cc(N[C@H]4CC[C@@](C)(O)CC4)c(-c4ccn(C(F)F)n4)cn3)n2)cn1 [Example 311] 25.6

Name the recorded IC50 of the compound listed here: CS(=O)(=O)c1ccccc1Nc1nccc(Nc2cc(N[C@H]3CC[C@@](C)(O)CC3)c(-c3ccn(C(F)F)n3)cn2)n1 [Example 313] 12.6

Note IC50 for the compound shown: CC1(O)CCC(Nc2cc(Nc3ccnc(-c4cnn(C5CCCCO5)c4)n3)ncc2-c2ccn(C(F)F)n2)CC1 (stereo not shown) [Example 314] 1.9

Supply recorded IC50 for C[C@]1(O)CC[C@@H](Nc2cc(Nc3ccnc(-c4cnn(S(=O)(=O)C5CC5)c4)n3)ncc2-c2ccn(C3COC3)n2)CC1 [Example 292] here. 0.2
